# System: S. aureus ATCC 9144
# Assay type: cell-based, Staphylococcus aureus
# condition label: ATCC 9144, 18 h
Where a SMILES comes first, the peptide text is derived from it. The star is where a group is joined. Hydrocinnamoyl = O=C(CCc1ccccc1)*; Octanoyl = CCCCCCCC(=O)*; X1 = CCCCCCC(CCCC)C(=O)*; X4 = O=C(/C=C/c1ccccc1)*; X2 = O=C(C#Cc1ccccc1)*; X3 = CCCCC(CC)C(=O)*; Butyryl = CCCC(=O)*
Items are presented alongside their recorded MIC S. aureus 9144.

compound	MIC S. aureus 9144 [µg/mL]
CCCCC(CC)C(=O)N[C@@H](CCCCN)C(=O)N[C@@H](CCCNC(=N)N)C(=O)N[C@H](C(=O)N[C@H](C(=O)N[C@@H](CCC(N)=O)C(=O)N[C@@H](CCCNC(=N)N)C(=O)N[C@H](C(=O)N[C@@H](CCCCN)C(=O)N[C@@H](CC(=O)O)C(=O)N[C@@H](Cc1ccccc1)C(=O)N[C@@H](CC(C)C)C(=O)N[C@@H](CCCNC(=N)N)C(N)=O)[C@@H](C)CC)C(C)C)[C@@H](C)CC (stereo partly drawn) [XIV, 2-Ethylhexanoic acid-KR12-NH2] (X3-KRIVQRIKDFLR-NH2)	32
CC[C@H](C)[C@H](NC(=O)[C@H](CCCNC(=N)N)NC(=O)[C@H](CCC(N)=O)NC(=O)[C@@H](NC(=O)[C@@H](NC(=O)[C@H](CCCNC(=N)N)NC(=O)[C@H](CCCCN)NC(=O)CCc1ccccc1)[C@@H](C)CC)C(C)C)C(=O)N[C@@H](CCCCN)C(=O)N[C@@H](CC(=O)O)C(=O)N[C@@H](Cc1ccccc1)C(=O)N[C@@H](CC(C)C)C(=O)N[C@@H](CCCNC(=N)N)C(N)=O [XVII, 3-Phenylpropionic acid-KR12-NH2] (Hydrocinnamoyl-KRIVQRIKDFLR-NH2)	16
CCCCCCC(CCCC)C(=O)N[C@@H](CCCCN)C(=O)N[C@@H](CCCNC(=N)N)C(=O)N[C@H](C(=O)N[C@H](C(=O)N[C@@H](CCC(N)=O)C(=O)N[C@@H](CCCNC(=N)N)C(=O)N[C@H](C(=O)N[C@@H](CCCCN)C(=O)N[C@@H](CC(=O)O)C(=O)N[C@@H](Cc1ccccc1)C(=O)N[C@@H](CC(C)C)C(=O)N[C@@H](CCCNC(=N)N)C(N)=O)[C@@H](C)CC)C(C)C)[C@@H](C)CC (stereo partly drawn) [XIII, 2-Buthyloctanoic acid-KR12-NH2] (X1-KRIVQRIKDFLR-NH2)	2
CC[C@H](C)[C@H](NC(=O)[C@H](CCCNC(=N)N)NC(=O)[C@H](CCC(N)=O)NC(=O)[C@@H](NC(=O)[C@@H](NC(=O)[C@H](CCCNC(=N)N)NC(=O)[C@H](CCCCN)NC(=O)C#Cc1ccccc1)[C@@H](C)CC)C(C)C)C(=O)N[C@@H](CCCCN)C(=O)N[C@@H](CC(=O)O)C(=O)N[C@@H](Cc1ccccc1)C(=O)N[C@@H](CC(C)C)C(=O)N[C@@H](CCCNC(=N)N)C(N)=O [XX, Phenylpropiolic acid-KR12-NH2] (X2-KRIVQRIKDFLR-NH2)	16
CCCCCCCC(=O)NCCCC[C@H](NC(=O)CCCCCCC)C(=O)N[C@@H](CCCNC(=N)N)C(=O)N[C@H](C(=O)N[C@H](C(=O)N[C@@H](CCC(N)=O)C(=O)N[C@@H](CCCNC(=N)N)C(=O)N[C@H](C(=O)N[C@@H](CCCCN)C(=O)N[C@@H](CC(=O)O)C(=O)N[C@@H](Cc1ccccc1)C(=O)N[C@@H](CC(C)C)C(=O)N[C@@H](CCCNC(=N)N)C(N)=O)[C@@H](C)CC)C(C)C)[C@@H](C)CC [IX, C8^α,C8^ε-KR12-NH2] (Octanoyl-K(Octanoyl)RIVQRIKDFLR-NH2)	256
CCCCCCCC(=O)NCCCC[C@H](NC(=O)[C@H](CC(C)C)NC(=O)[C@H](Cc1ccccc1)NC(=O)[C@H](CC(=O)O)NC(=O)[C@H](CCCCN)NC(=O)[C@@H](NC(=O)[C@H](CCCNC(=N)N)NC(=O)[C@H](CCC(N)=O)NC(=O)[C@@H](NC(=O)[C@@H](NC(=O)[C@H](CCCNC(=N)N)NC(=O)[C@@H](N)CCCCN)[C@@H](C)CC)C(C)C)[C@@H](C)CC)C(N)=O [VII, [Lys^ε(C8)]^12KR12-NH2] (H-KRIVQRIKDFLK(Octanoyl)-NH2)	512
CC[C@H](C)[C@H](NC(=O)[C@H](CCCNC(=N)N)NC(=O)[C@H](CCC(N)=O)NC(=O)[C@@H](NC(=O)[C@@H](NC(=O)[C@H](CCCNC(=N)N)NC(=O)[C@H](CCCCN)NC(=O)/C=C/c1ccccc1)[C@@H](C)CC)C(C)C)C(=O)N[C@@H](CCCCN)C(=O)N[C@@H](CC(=O)O)C(=O)N[C@@H](Cc1ccccc1)C(=O)N[C@@H](CC(C)C)C(=O)N[C@@H](CCCNC(=N)N)C(N)=O [XIX, trans-cinnamic acid-KR12-NH2] (X4-KRIVQRIKDFLR-NH2)	4
CCCC(=O)NCCCC[C@H](NC(=O)CCC)C(=O)N[C@@H](CCCNC(=N)N)C(=O)N[C@H](C(=O)N[C@H](C(=O)N[C@@H](CCC(N)=O)C(=O)N[C@@H](CCCNC(=N)N)C(=O)N[C@H](C(=O)N[C@@H](CCCCN)C(=O)N[C@@H](CC(=O)O)C(=O)N[C@@H](Cc1ccccc1)C(=O)N[C@@H](CC(C)C)C(=O)N[C@@H](CCCNC(=N)N)C(N)=O)[C@@H](C)CC)C(C)C)[C@@H](C)CC [X, C4^α, C4^ε-KR12-NH2] (Butyryl-K(Butyryl)RIVQRIKDFLR-NH2)	256
CCCCCCCC(=O)NCCCC[C@H](NC(=O)[C@H](CCCNC(=N)N)NC(=O)[C@@H](NC(=O)[C@@H](NC(=O)[C@H](CCC(N)=O)NC(=O)[C@H](CCCNC(=N)N)NC(=O)[C@@H](NC(=O)[C@H](CCCCN)NC(=O)[C@H](CC(=O)O)NC(=O)[C@H](Cc1ccccc1)NC(=O)[C@H](CC(C)C)NC(=O)[C@@H](N)CCCNC(=N)N)[C@@H](C)CC)C(C)C)[C@@H](C)CC)C(N)=O [XI, retro-KR12-C8^ε-NH2] (H-RLFDKIRQVIRK(Octanoyl)-NH2)	256
